# tested-on: Myeloperoxidase (Homo sapiens)
# Sequence (P05164 whole entry): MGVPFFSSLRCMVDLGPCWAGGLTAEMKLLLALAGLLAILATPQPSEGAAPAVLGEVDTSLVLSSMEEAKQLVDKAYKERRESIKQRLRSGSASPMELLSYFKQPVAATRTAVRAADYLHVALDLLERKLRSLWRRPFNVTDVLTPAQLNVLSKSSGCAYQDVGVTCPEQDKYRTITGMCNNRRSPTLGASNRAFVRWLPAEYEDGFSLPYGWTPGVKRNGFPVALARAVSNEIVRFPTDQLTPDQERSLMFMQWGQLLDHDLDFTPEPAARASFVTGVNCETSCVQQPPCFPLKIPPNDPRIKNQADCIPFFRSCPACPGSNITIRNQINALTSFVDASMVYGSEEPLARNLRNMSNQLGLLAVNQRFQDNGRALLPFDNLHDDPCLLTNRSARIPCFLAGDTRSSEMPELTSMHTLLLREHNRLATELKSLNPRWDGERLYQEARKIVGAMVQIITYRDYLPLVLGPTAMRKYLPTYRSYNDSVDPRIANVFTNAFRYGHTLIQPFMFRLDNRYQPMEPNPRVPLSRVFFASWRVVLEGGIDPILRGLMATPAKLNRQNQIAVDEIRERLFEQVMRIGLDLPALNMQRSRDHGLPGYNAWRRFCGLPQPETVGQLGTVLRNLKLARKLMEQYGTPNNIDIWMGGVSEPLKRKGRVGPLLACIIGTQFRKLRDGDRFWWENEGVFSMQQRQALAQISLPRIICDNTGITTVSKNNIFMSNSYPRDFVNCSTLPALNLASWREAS
# assay-name: Inhibition of recombinant MPO mediated LDL oxidation using MPO/Cl-/H2O2 system
parameter-measured: IC50 (nM)
One number for each entry, in nM.

For the record `Fc1ccc2[nH]cc(CCN3CCCC3)c2c1` , what value of IC50 is listed for Myeloperoxidase (Homo sapiens)?
1030

Hi there! I need IC50 for each item below, if you can.
1. NCCc1c[nH]c2ccc(F)cc12
2. NCCCCc1c[nH]c2ccc(F)cc12
3. NCCCCCCc1c[nH]c2ccc(F)cc12
4. CCN(CC)CCCc1c[nH]c2ccc(F)cc12
5. CN1CCN(CCc2c[nH]c3ccc(F)cc23)CC1
6. CN(C)CCc1c[nH]c2ccc(F)cc12
7. CCNCCc1c[nH]c2ccc(F)cc12
8. CCCCNCCc1c[nH]c2ccc(F)cc12

1. 940
2. 12
3. 580
4. 390
5. 650
6. 580
7. 850
8. 250

Hi, could you look up IC50 for each item in my list?
1. CCN(CC)CCc1c[nH]c2ccc(F)cc12
2. NCCCCCc1c[nH]c2ccc(F)cc12
3. Fc1ccc2[nH]cc(CCCN3CCCC3)c2c1
4. CCCCNCCCc1c[nH]c2ccc(F)cc12
5. CNCCc1c[nH]c2ccc(F)cc12
6. CCNCCCc1c[nH]c2ccc(F)cc12

[510, 5, 210, 17, 650, 190]

# map each compound to its IC50
1. CNCCCc1c[nH]c2ccc(F)cc12
2. CN1CCN(CCCc2c[nH]c3ccc(F)cc23)CC1
3. CCCNCCc1c[nH]c2ccc(F)cc12
4. CCCNCCCc1c[nH]c2ccc(F)cc12
5. CN(C)CCCc1c[nH]c2ccc(F)cc12

26
310
460
340
49

Enter reported IC50 observed with Myeloperoxidase (Homo sapiens) for `NCCCc1c[nH]c2ccc(F)cc12`
650
